biological target: hNurr1_RXRαFL (NURR1/RXRα heterodimer) (Homo sapiens, UniProt P19793+P43354); assay: Transactivation assay in Cos-7 cells, NURR-1-Gal4 / RXRα, luciferase reporter; details: Cos-7 cells, overnight incubation
Sequence (P19793 whole entry, the tested form may be a part): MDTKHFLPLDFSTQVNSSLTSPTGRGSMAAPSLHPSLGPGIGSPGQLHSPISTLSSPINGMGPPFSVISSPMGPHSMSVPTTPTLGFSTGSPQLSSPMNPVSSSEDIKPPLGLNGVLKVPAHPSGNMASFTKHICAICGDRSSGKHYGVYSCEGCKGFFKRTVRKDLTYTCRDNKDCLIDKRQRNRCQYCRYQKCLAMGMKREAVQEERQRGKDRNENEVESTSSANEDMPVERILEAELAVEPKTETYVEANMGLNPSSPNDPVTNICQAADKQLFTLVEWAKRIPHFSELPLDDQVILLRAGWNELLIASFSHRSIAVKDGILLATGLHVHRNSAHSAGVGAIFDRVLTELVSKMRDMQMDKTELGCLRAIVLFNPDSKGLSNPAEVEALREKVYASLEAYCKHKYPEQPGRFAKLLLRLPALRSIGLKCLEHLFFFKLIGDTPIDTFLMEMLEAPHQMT
Sequence (P43354 328-598): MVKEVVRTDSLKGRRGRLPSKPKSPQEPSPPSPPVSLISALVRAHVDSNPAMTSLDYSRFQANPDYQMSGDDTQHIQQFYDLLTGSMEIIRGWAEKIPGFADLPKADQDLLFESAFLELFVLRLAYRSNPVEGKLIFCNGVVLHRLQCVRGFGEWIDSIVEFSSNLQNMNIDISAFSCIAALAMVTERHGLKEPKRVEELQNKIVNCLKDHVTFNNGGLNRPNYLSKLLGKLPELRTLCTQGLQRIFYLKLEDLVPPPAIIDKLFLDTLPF
Measured pEC50 of individual entries
Kindly note that pEC50 refers to -log10 of the concentration in mol/L and answer with the value alone.

Ask | Could you tell me which pEC50 is on file for CN1CCOc2ccc(S(=O)(=O)n3c(Cc4ccc(C(=O)O)c(Cl)c4)cc4cc(C(F)(F)F)ccc43)cc21 [Example 211] ?
Reply | 6.41

###

target: hNurr1_RXRαFL (NURR1/RXRα heterodimer) (Homo sapiens, UniProt P19793+P43354); test: Transactivation assay in Cos-7 cells, NURR-1-Gal4 / RXRα, luciferase reporter; settings: Cos-7 cells, overnight incubation
Catalogue of pEC50 values
pEC50 (log units): -log10 of the concentration in mol/L.

Below, 5 compounds whose answers are already recorded.
Compound	pEC50
COc1ccc(C(=O)O)cc1Cc1cc2cc(C(F)(F)F)ccc2n1S(=O)(=O)c1cccc(C(C)(C)C)c1 [Example 208]	6.62
CC(C)c1ccc(S(=O)(=O)n2c(Cc3ccc(C(=O)O)c(O)c3)cc3cc(Cl)ccc32)cc1 [Example 99]	6.24
Cc1c(Cc2cccc(C(=O)O)c2)n(S(=O)(=O)c2cccc(C(C)(C)C)c2)c2ccc(C(F)(F)F)cc12 [Example 186]	6.91
CC(C)(C)c1cccc(S(=O)(=O)n2c(Cc3cc(C(=O)O)ccc3F)cc3cc(C(F)(F)F)ccc32)c1 [Example 199]	7.66
CCCOc1ccc(S(=O)(=O)n2c(Cc3ccc(C(=O)O)cc3)cc3cc(C(F)(F)F)ccc32)cc1 [Example 123]	6.66

Ask | Which value of pEC50 has been reported for CC(C)(C)c1cccc(S(=O)(=O)n2c(Cc3ccc(C(=O)O)o3)cc3cc(C(F)(F)F)ccc32)c1 [Example 69] in the records?
Reply | 8.05

Ask | Which measured pEC50 value corresponds to CC(C)(C)c1cccc(S(=O)(=O)n2c(Cc3csc(C(=O)O)c3)cc3cc(C(F)(F)F)ccc32)c1 [Example 70] ?
Reply | 8.30

Ask | Item CC(C)(C)c1cccc(S(=O)(=O)n2c(Cc3ccc(C(=O)O)cc3)c(F)c3cc(C(F)(F)F)ccc32)c1 [Example 149] has what recorded pEC50?
Reply | 7.03

Ask | Bench note: what pEC50 did COC(=O)c1ccc(Cc2cc3cc(Cl)ccc3n2S(=O)(=O)c2ccc(C(C)C)cc2)cc1 [Example 40] show?
Reply | 6.25

Ask | For the compound Cc1c(Cc2ccc(C(=O)O)s2)n(S(=O)(=O)c2cccc(C(C)(C)C)c2)c2ccc(C(F)(F)F)cc12 [Example 85] , what pEC50 is on record?
Reply | 7.28

Ask | Request the reported pEC50 associated with CC(C)(C)c1cccc(S(=O)(=O)n2c(Cc3ccc(S(N)(=O)=O)cc3)cc3cc(C(F)(F)F)ccc32)c1 [Example 198]
Reply | 5.10

Ask | Fill in the blank: the reported pEC50 of CC(C)c1ccc(S(=O)(=O)n2c(Cc3ccc(C(=O)O)cc3)cc3cc(C(F)(F)F)ccc32)cc1 [Example 43] is ____.
Reply | 6.54

Ask | Form field: reported pEC50 of CC(C)c1cccc(S(=O)(=O)n2c(Cc3ccc(C(=O)O)cc3)cc3cc(N4CCCC4)ccc32)c1 [Example 116]
Reply | 6.06

Ask | Could you share which pEC50 value was measured for CCCc1ccc(S(=O)(=O)n2c(Cc3ccc(C(=O)O)cc3)cc3cc(C(F)(F)F)ccc32)cc1 [Example 139] ?
Reply | 6.69

Ask | # query: pEC50 of entry Cc1cccc(S(=O)(=O)n2c(Cc3ccc(C(=O)O)cc3)cc3cc(C(F)(F)F)ccc32)c1 [Example 141]
Reply | 6.55

Ask | So what's the measured pEC50 for this one? O=C(O)c1ccc(Cc2cc3cc(Cl)ccc3n2S(=O)(=O)c2ccc3c(c2)OCO3)cc1 [Example 174]
Reply | 6.23

Ask | Entry under review: CCc1ccc(S(=O)(=O)n2c(Cc3ccc(C(=O)O)cc3)cc3cc(Cl)ccc32)cc1 [Example 159] . Reported pEC50?
Reply | 6.50

Ask | Sample COC(=O)c1cc(Cc2cc3cc(C(F)(F)F)ccc3n2S(=O)(=O)c2cccc(C(C)(C)C)c2)cn1C [Example 192] — what was its pEC50?
Reply | 5.95

Ask | Can you share its pEC50? I mean this compound: CC(C)(C)c1cccc(S(=O)(=O)n2c(Cc3ccc(C(=O)O)cc3)cc3cc(C(F)(F)F)ccc32)c1 [Example 49]
Reply | 7.32

Ask | Given CC(C)(C)c1cccc(S(=O)(=O)n2c(Cc3ccc(-c4nn[nH]n4)cc3)cc3cc(C(F)(F)F)ccc32)c1 [Example 221] , state its recorded pEC50.
Reply | 6.72

###

target: hNurr1_RXRαFL (NURR1/RXRα heterodimer) (Homo sapiens, UniProt P19793+P43354); assay: Transactivation assay in Cos-7 cells, NURR-1-Gal4 / RXRα, luciferase reporter; format: cell-based; details: COS-7, read-out: hNurr1_RXRαFL Eff (%), efficacy in % relative to the reference XCT0135908 at 2·10^−5 M (=100%)
Categories are defined by ranges of Emax, namely range 1 = under 60%, range 2 = from 60% up to 80%, range 3 = 80% and over

As a guide, the following entries are already answered.
Molecule	Target Entity	Class Label
CC(C)(C)c1cccc(S(=O)(=O)n2c(Cc3ccc(C(=O)O)cc3)cc3cc(C(F)(F)F)c(F)cc32)c1 [Example 117]	hNurr1_RXRαFL (NURR1/RXRα heterodimer) (Homo sapiens, UniProt P19793+P43354)	range 3
COc1ccc(S(=O)(=O)n2c(Cc3ccc(C(=O)O)cc3)cc3cc(C(F)(F)F)ccc32)cc1 [Example 138]	hNurr1_RXRαFL (NURR1/RXRα heterodimer) (Homo sapiens, UniProt P19793+P43354)	range 1
O=C(O)c1ccc(Cc2cc3cc(C(F)(F)F)ccc3n2S(=O)(=O)c2ccc(Cl)cc2)cc1 [Example 136]	hNurr1_RXRαFL (NURR1/RXRα heterodimer) (Homo sapiens, UniProt P19793+P43354)	range 1
O=C(O)c1ccc(Cc2cc3cc(C(F)(F)F)ccc3n2S(=O)(=O)c2cccc(C3CC3)c2)cc1 [Example 59]	hNurr1_RXRαFL (NURR1/RXRα heterodimer) (Homo sapiens, UniProt P19793+P43354)	range 2
CCCCCc1ccc(S(=O)(=O)n2c(Cc3ccc(C(=O)O)cc3)cc3cc(Cl)ccc32)cc1 [Example 170]	hNurr1_RXRαFL (NURR1/RXRα heterodimer) (Homo sapiens, UniProt P19793+P43354)	range 1
O=C(O)c1ccc(Cc2cc3cc(Cl)ccc3n2S(=O)(=O)c2ccc3c(c2)OCCO3)s1 [Example 77]	hNurr1_RXRαFL (NURR1/RXRα heterodimer) (Homo sapiens, UniProt P19793+P43354)	range 2

With those in mind, consider the next molecule.
Ask | The entry to classify is CC(C)(C)c1cccc(S(=O)(=O)n2c(Cc3ccc(CNS(C)(=O)=O)cc3)cc3cc(C(F)(F)F)ccc32)c1 [Example 227] ; which class holds it?
Reply | range 2

###

Emax overview
Target: hNurr1_RXRγFL (NURR1/RXRγ heterodimer) (Homo sapiens, UniProt P43354+P48443)
Sequence (P43354 328-598): as above
Sequence (P48443 whole entry, the tested form may be a part): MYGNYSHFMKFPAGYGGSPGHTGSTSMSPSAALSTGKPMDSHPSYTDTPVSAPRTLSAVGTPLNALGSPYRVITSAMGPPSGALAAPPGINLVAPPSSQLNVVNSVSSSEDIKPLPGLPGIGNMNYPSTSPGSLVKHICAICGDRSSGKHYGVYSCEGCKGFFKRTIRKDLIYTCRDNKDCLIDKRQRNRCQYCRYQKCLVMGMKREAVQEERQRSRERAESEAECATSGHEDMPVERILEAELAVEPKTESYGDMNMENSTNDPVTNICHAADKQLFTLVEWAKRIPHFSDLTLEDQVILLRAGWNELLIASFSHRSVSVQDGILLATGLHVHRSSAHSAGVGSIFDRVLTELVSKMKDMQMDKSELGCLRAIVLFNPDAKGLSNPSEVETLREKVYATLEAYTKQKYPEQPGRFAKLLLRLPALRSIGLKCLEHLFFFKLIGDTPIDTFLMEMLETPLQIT
Assay: Transactivation assay in Cos-7 cells, NURR-1-Gal4 / RXRγ, luciferase reporter
Type: cell-based
Settings: COS-7, read-out: hNurr1_RXRγFL Eff (%), efficacy in % relative to the reference XCT0135908 at 2·10^−5 M (=100%)
Method: First, the capacity of the compounds according to the invention for acting as an activator of the heterodimers formed by the NURR-1 nuclear receptor and the RXR nuclear receptors was measured by an in vitro assay. A transactivation assay was used as a primary screening assay. […] After 24 hours, the culture medium was changed. […] After overnight incubation, luciferase expression was measured after addition of “SteadyGlo” according to the manufacturer's instructions (Promega). […]
Only the number, expressed in %, is required.

Compound	Emax, %
CC(C)(C)c1cccc(S(=O)(=O)n2c(Cc3nc(C(=O)O)cs3)cc3cc(C(F)(F)F)ccc32)c1 [Example 89]	62

Ask | Item under review: CC(C)(C)c1cccc(S(=O)(=O)n2c(Cc3ccc(C(=O)O)c(Cl)c3)cc3cc(C(F)(F)F)ccc32)c1 [Example 206] . Reported Emax?
Reply | 85

Ask | Could you share which Emax value was measured for COc1ccc(S(=O)(=O)n2c(Cc3ccc(C(=O)O)cc3)cc3cc(Cl)ccc32)cc1 [Example 165] ?
Reply | 37

Ask | I would be grateful if you could share the reported Emax for CC(C)(C)c1cccc(S(=O)(=O)n2c(Cc3ccc(CNS(C)(=O)=O)cc3)cc3cc(C(F)(F)F)ccc32)c1 [Example 227] .
Reply | 86

Ask | Give its Emax value. Item: O=C(O)c1ccc(Cc2cc3cc(Cl)ccc3n2S(=O)(=O)c2ccc(F)c(F)c2)cc1 [Example 153]
Reply | 63

Ask | Quick check: Emax of CCCc1ccc(S(=O)(=O)n2c(Cc3ccc(C(=O)O)cc3)cc3cc(Cl)ccc32)cc1 [Example 152] ?
Reply | 75

Ask | Would you mind telling me what Emax value was observed for Cn1ccc(-c2cccc(S(=O)(=O)n3c(Cc4ccc(C(=O)O)cc4)cc4cc(C(F)(F)F)ccc43)c2)n1 [Example 18] ?
Reply | 34

Ask | Value lookup for Emax; key = O=C(O)c1ccc(Cc2cc3cc(C(F)(F)F)ccc3n2S(=O)(=O)c2cc3ccccc3o2)cc1 [Example 122]
Reply | 54

Ask | Item under review: O=C(O)c1ccc(F)c(Cc2cc3cc(C(F)(F)F)ccc3n2S(=O)(=O)c2ccc3c(c2)OCCO3)c1 [Example 214] . Reported Emax?
Reply | 55

Ask | Give its Emax value. Item: CN1C(=O)COc2ccc(S(=O)(=O)n3c(Cc4ccc(C(=O)O)cc4)cc4cc(C(F)(F)F)ccc43)cc21 [Example 125]
Reply | 101

Ask | Please look up its Emax: Cn1nccc1-c1cccc(S(=O)(=O)n2c(Cc3ccc(C(=O)O)cc3)cc3cc(C(F)(F)F)ccc32)c1 [Example 20]
Reply | 44

Ask | // Emax lookup, key: Cc1ccc2c(c1)cc(Cc1ccc(C(=O)O)cc1)n2S(=O)(=O)c1cccc(C(C)(C)C)c1 [Example 118]
Reply | 65

Ask | Quick one: Emax of O=C(O)c1ccc(Cc2cc3cc(C(F)(F)F)ccc3n2S(=O)(=O)c2ccc3ccccc3c2)cc1 [Example 25] ?
Reply | 33

Ask | Fill in: Emax of Cc1c(Cc2ccc(C(=O)O)s2)n(S(=O)(=O)c2cccc(C(C)(C)C)c2)c2ccc(C(F)(F)F)cc12 [Example 85] is ___
Reply | 73

Ask | Would you kindly share the measured Emax for O=C(O)c1ccc(Cc2cc3cc(Cl)ccc3n2S(=O)(=O)c2ccc(F)cc2)cc1 [Example 167] ?
Reply | 40
